// provenance: patent US7960129B2

Target: STIM2+CRACM1-expressing HEK293 cells (Homo sapiens, UniProt Q9P246)
Construct: expressed in transfected cells; host or cells: HEK293
Sequence (Q9P246 15-746): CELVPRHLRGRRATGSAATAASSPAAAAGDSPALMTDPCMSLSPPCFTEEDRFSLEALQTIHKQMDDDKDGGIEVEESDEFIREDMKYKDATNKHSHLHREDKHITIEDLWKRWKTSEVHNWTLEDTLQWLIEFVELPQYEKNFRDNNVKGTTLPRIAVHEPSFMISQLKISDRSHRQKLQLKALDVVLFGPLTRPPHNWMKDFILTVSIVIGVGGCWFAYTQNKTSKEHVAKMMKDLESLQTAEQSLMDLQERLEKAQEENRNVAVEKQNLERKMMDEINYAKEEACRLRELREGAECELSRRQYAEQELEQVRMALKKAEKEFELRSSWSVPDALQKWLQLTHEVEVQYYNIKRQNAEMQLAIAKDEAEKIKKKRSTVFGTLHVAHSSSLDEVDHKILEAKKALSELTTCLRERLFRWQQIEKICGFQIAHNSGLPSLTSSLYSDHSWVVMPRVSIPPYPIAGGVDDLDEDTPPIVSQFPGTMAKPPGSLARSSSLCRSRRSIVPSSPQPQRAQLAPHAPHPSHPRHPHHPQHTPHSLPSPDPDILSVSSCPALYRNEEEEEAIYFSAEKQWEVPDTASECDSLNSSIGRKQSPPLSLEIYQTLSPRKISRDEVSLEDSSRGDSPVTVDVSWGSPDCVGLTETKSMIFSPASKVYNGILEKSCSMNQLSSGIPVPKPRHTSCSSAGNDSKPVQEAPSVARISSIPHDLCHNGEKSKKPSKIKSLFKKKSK
Test: Whole-cell patch-clamp of CRAC currents in STIM2+CRACM1 cells
Assay type: cell-based
Conditions: half-maximal inhibitory concentration for IP3-induced CRACM1 currents, cells perfused with G418; both phases of the current
Description: Patch-clamp experiments were performed in the tight-seal whole-cell configuration at 21-25° C. High-resolution current recordings were acquired using the EPC-9 (HEKA). […] Capacitive currents were determined and corrected before each voltage ramp. Extracting the current amplitude at −80 mV from individual ramp current records assessed the low-resolution temporal development of currents. […]
EXPERIMENTAL READOUT: pIC50
# reply with the number alone; pIC50 is -log10 of concentration in mol/L

Data request: Give me measured pIC50, please, for this compound: CN[C@@H]1[C@@H](O)[C@@H](O[C@@H]2[C@@H](O)[C@H](O[C@H]3O[C@H]([C@@H](C)O)[C@@H](O)[C@H](O)[C@H]3N)[C@@H](N)C[C@H]2N)OC[C@]1(C)O [G418]
Data returned: 6.30

###

target: STIM2+CRACM1-expressing HEK293 cells (Homo sapiens, UniProt Q9P246); construct: expressed in transfected cells; host or cells: HEK293; assay: Whole-cell patch-clamp of CRAC currents in STIM2+CRACM1 cells; format: cell-based
EXPERIMENTAL READOUT: pIC50
Hey, just a heads up that pIC50 is the negative log base 10 of the concentration in molar.

Data request: For the molecule CN[C@@H]1[C@@H](O)[C@@H](O[C@@H]2[C@@H](O)[C@H](O[C@H]3O[C@H]([C@@H](C)O)[C@@H](O)[C@H](O)[C@H]3N)[C@@H](N)C[C@H]2N)OC[C@]1(C)O [G418] , report pIC50.
Data returned: 6.28
